Conditions: in n-butanol, 303.15 K

| Structure Smiles String | solubility (mole fraction) |
| --- | --- |
| C=NCC#N | 0.00115 |

###

Settings: in n-butanol, 278.15 K
Observable: solubility (mole fraction)

| Structure Smiles String | Observable | Value Observed |
| --- | --- | --- |
| C=NCC#N | solubility (mole fraction) | 0.000479 |

###

Details: in n-propanol, 283.15 K
Observable: solubility (mole fraction)

| Structure Smiles String | Value Observed |
| --- | --- |
| C=NCC#N | 0.00125 |

###

Conditions: in n-propanol, 318.15 K

| Structure Smiles String | solubility (mole fraction) |
| --- | --- |
| C=NCC#N | 0.00427 |
